Just for reference, patent US20240398697A1 is where these values come from.

Assay: Terminal half-life of conventional aqueous formulations injected intramuscularly
Design: species or system adult male Wistar rats
Details: male, Wistar, rat, in vivo, im
Recorded metric: half-life (min)
Supply the numeric figure in min, leaving out any unit text.

Dear colleague, I am looking for the recorded half-life of the following compound: COC(=O)N[C@H](C(=O)N1CCC[C@H]1c1nc2cc([C@H]3CC[C@H](c4cc5nc([C@@H]6CCCN6C(=O)[C@@H](NC(=O)OC)[C@@H](C)OC)[nH]c5cc4F)N3c3cc(F)c(N4CCC(c5ccc(F)cc5)CC4)c(F)c3)c(F)cc2[nH]1)[C@@H](C)OC
600
